Experiment: Stability test of heat resistance of near-IR absorption filter
Format: physicochemical
Conditions: acrylic resin filter, before test
Can you tell me b* value, initial period for the items I'm about to list?
Give bare numbers.

Answered examples (3):
1. CC(C)CCN(CCC(C)C)c1ccc([N+](=C2C=CC(=[N+](c3ccc(N(CCC(C)C)CCC(C)C)cc3)c3ccc(N(CCC(C)C)CCC(C)C)cc3)C=C2)c2ccc(N(CCC(C)C)CCC(C)C)cc2)cc1.O=S(=O)([N-]S(=O)(=O)C(F)(F)F)C(F)(F)F.O=S(=O)([N-]S(=O)(=O)C(F)(F)F)C(F)(F)F: 2.4
2. CC(C)CN(CC(C)C)c1ccc([N+](=C2C=CC(=[N+](c3ccc(N(CC(C)C)CC(C)C)cc3)c3ccc(N(CC(C)C)CC(C)C)cc3)C=C2)c2ccc(N(CC(C)C)CC(C)C)cc2)cc1: 2.2
3. CCCCN(CCCC)c1ccc([N+](=C2C=CC(=[N+](c3ccc(N(CCCC)CCCC)cc3)c3ccc(N(CCCC)CCCC)cc3)C=C2)c2ccc(N(CCCC)CCCC)cc2)cc1.[F][Sb-]([F])([F])([F])([F])[F].[F][Sb-]([F])([F])([F])([F])[F] [Compound No. 153, reference compound]: 2.5

The reported value for `CCCCN(CCCC)c1ccc([N+](=C2C=CC(=[N+](c3ccc(N(CCCC)CCCC)cc3)c3ccc(N(CCCC)CCCC)cc3)C=C2)c2ccc(N(CCCC)CCCC)cc2)cc1` in terms of b* value, initial period is 3.5

---

Can you tell me b* value, initial period for the items I'm about to list?
Assay: Stability test of moisture-and-heat resistance of near-IR absorption filter
Format: physicochemical
Settings: acrylic resin filter, before test
Description: 1.2 part of each compound obtained in each Example was dissolved in 18.8 part of MEK. 80 part of a resin solution obtained by dissolving 25 part of an acrylic resin (Dianal BR-80, manufactured by Mitsubishi Rayon Co., Ltd.) in 75 part of MEK was mixed with the obtained solution to obtain a solution for coating. The solution was applied to form a film with a thickness of 2 to 4 μm on a polyester film and dried at 80° C. to obtain a near-IR absorption filter of the invention. […]
One number for each entry.

1. CCCCN(CCCC)c1ccc([N+](=C2C=CC(=[N+](c3ccc(N(CCCC)CCCC)cc3)c3ccc(N(CCCC)CCCC)cc3)C=C2)c2ccc(N(CCCC)CCCC)cc2)cc1.F[B-](F)(F)F.F[B-](F)(F)F [Compound No. 156, reference compound]: 3.5
2. N#CCCCCN(CCCCC#N)c1ccc([N+](=C2C=CC(=[N+](c3ccc(N(CCCCC#N)CCCCC#N)cc3)c3ccc(N(CCCCC#N)CCCCC#N)cc3)C=C2)c2ccc(N(CCCCC#N)CCCCC#N)cc2)cc1.O=S(=O)([N-]S(=O)(=O)C(F)(F)F)C(F)(F)F.O=S(=O)([N-]S(=O)(=O)C(F)(F)F)C(F)(F)F: 2.4

The reported value for `CC(C)CN(CC(C)C)c1ccc([N+](=C2C=CC(=[N+](c3ccc(N(CC(C)C)CC(C)C)cc3)c3ccc(N(CC(C)C)CC(C)C)cc3)C=C2)c2ccc(N(CC(C)C)CC(C)C)cc2)cc1` in terms of b* value, initial period is 2.2

---

Can you tell me b* value, 14-day after for the items I'm about to list?
Test: Stability test of moisture-and-heat resistance of near-IR absorption filter
Type: physicochemical
Details: acrylic resin filter, 14 days at 60° C. and 95% RH
Give bare numbers.

1) CC(C)CN(CC(C)C)c1ccc([N+](=C2C=CC(=[N+](c3ccc(N(CC(C)C)CC(C)C)cc3)c3ccc(N(CC(C)C)CC(C)C)cc3)C=C2)c2ccc(N(CC(C)C)CC(C)C)cc2)cc1: 4.1
2) CCCCN(CCCC)c1ccc([N+](=C2C=CC(=[N+](c3ccc(N(CCCC)CCCC)cc3)c3ccc(N(CCCC)CCCC)cc3)C=C2)c2ccc(N(CCCC)CCCC)cc2)cc1.F[B-](F)(F)F.F[B-](F)(F)F [Compound No. 156, reference compound]: 14.3

Batch request: b* value, 14-day after per item, same order as input.
1. CCCCN(CCCC)c1ccc([N+](=C2C=CC(=[N+](c3ccc(N(CCCC)CCCC)cc3)c3ccc(N(CCCC)CCCC)cc3)C=C2)c2ccc(N(CCCC)CCCC)cc2)cc1.F[P-](F)(F)(F)(F)F.F[P-](F)(F)(F)(F)F [Compound No. 155, reference compound]
2. N#CCCCCN(CCCCC#N)c1ccc([N+](=C2C=CC(=[N+](c3ccc(N(CCCCC#N)CCCCC#N)cc3)c3ccc(N(CCCCC#N)CCCCC#N)cc3)C=C2)c2ccc(N(CCCCC#N)CCCCC#N)cc2)cc1.O=S(=O)([N-]S(=O)(=O)C(F)(F)F)C(F)(F)F.O=S(=O)([N-]S(=O)(=O)C(F)(F)F)C(F)(F)F
3. CC(C)CCN(CCC(C)C)c1ccc([N+](=C2C=CC(=[N+](c3ccc(N(CCC(C)C)CCC(C)C)cc3)c3ccc(N(CCC(C)C)CCC(C)C)cc3)C=C2)c2ccc(N(CCC(C)C)CCC(C)C)cc2)cc1.O=S(=O)([N-]S(=O)(=O)C(F)(F)F)C(F)(F)F.O=S(=O)([N-]S(=O)(=O)C(F)(F)F)C(F)(F)F

Output line:
1. 9.0
2. 4.3
3. 4.3
